All values here come from patent US20120184542A1.

- TESTED TARGET: Human DYRK1A (Homo sapiens)
- Construct: purchased Invitrogen PV3997
- TEST PROTOCOL: DYRK1A Kinase TR-FRET (IMAP-Tb) Assay
- Type: biochemical
- RUN CONDITIONS: TR-FRET (IMAP-Tb); ATP 70 μM; 37° C. 60 minutes; read-out: Enzyme IC50 (μM) DYRK1A
Structures can show the parent of a compound that is named as a salt.
We begin with a simple list: items and their reported log10 of IC50.
Recorded IC50 (log10, µM)

Some molecules with recorded log10 of IC50:
| MOLECULE | TESTED TARGET | log10 of IC50 |
| --- | --- | --- |
| COC(=O)c1ccc(Cl)c(NC(=O)c2cc3cnc(NCCO)nc3[nH]c2=O)c1 [Example 41] | Human DYRK1A (Homo sapiens) | -1.10 |
| O=C(NC(CO)c1ccccc1)c1ccc(Cl)c(NC(=O)c2cc3cnc(N4C[C@H]5CC[C@@H](C4)O5)nc3[nH]c2=O)c1 (stereo partly drawn) [Example 181] | Human DYRK1A (Homo sapiens) | -1.20 |
| CN1CCN(CCCNc2ncc3cc(C(=O)Nc4cc(C(=O)NCc5cccc(Cl)c5)ccc4Cl)c(=O)[nH]c3n2)CC1 [Example 102, hydrochloride] | Human DYRK1A (Homo sapiens) | -1.45 |
| O=C(NCc1cccc(Cl)c1)c1ccc(Cl)c(NC(=O)c2cc3cnc(OCCN4CCOCC4)nc3[nH]c2=O)c1 [Example 81] | Human DYRK1A (Homo sapiens) | -1.50 |
| CC(C)(O)CNc1ncc2cc(C(=O)Nc3cc(C(=O)NC(CCO)c4ccccc4)ccc3Cl)c(=O)[nH]c2n1 (stereo not drawn) [Example 154] | Human DYRK1A (Homo sapiens) | -1.12 |

Can you look up the measured log10 of IC50 of O=C(NCc1cccc(Cl)c1)c1ccc(Cl)c(NC(=O)c2cc3cnc(N4C[C@H]5CC[C@@H](C4)O5)nc3[nH]c2=O)c1 [Example 179] for me?
-1.43

Next: COc1ncc2cc(C(=O)Nc3cc(C(=O)OCc4ccccc4Cl)ccc3Cl)c(=O)[nH]c2n1 [Example 52]
0.08

Next: COc1ncc2cc(C(=O)Nc3cc(C(=O)NC(c4ccccc4)C(F)(F)CN)ccc3Cl)c(=O)[nH]c2n1 (stereo not drawn) [Example 196]
-0.76

Next: CC(=O)N1CCN(c2ncc3cc(C(=O)Nc4cc(C(=O)NCc5cccc(Cl)c5)ccc4Cl)c(=O)[nH]c3n2)CC1 [Example 108]
-0.94

Next: COc1ncc2cc(C(=O)Nc3cc(C(=O)NCCC(N)=O)ccc3Cl)c(=O)[nH]c2n1 [Example 167]
-0.47

Next: NCC(NC(=O)c1ccc(Cl)c(NC(=O)c2cc3cnc(N4CCC(N)CC4)nc3[nH]c2=O)c1)c1ccccc1 (stereo not drawn) [Example 138, hydrochloride]
-1.74

Next: N[C@H]1CC[C@@H](Nc2ncc3cc(C(=O)Nc4cc(C(=O)NCc5cccc(Cl)c5)ccc4Cl)c(=O)[nH]c3n2)CC1 [Example 118, hydrochloride]
-1.24

Next: CN1CCN(CCNc2ncc3cc(C(=O)Nc4cc(C(=O)NCc5cccc(Cl)c5)ccc4Cl)c(=O)[nH]c3n2)CC1 [Example 99]
-1.69

Next: CN1CCN(c2ncc3cc(C(=O)Nc4cc(C(=O)N[C@H](CN)Cc5cccc(F)c5)ccc4Cl)c(=O)[nH]c3n2)CC1 [Example 187]
-0.89

Next: COc1ncc2cc(C(=O)Nc3cc(C(=O)NCC[C@@H](N)c4ccccc4)ccc3Cl)c(=O)[nH]c2n1 [Example 184]
-0.48

Next: CSc1ncc2cc(C(=O)Nc3cc(C(=O)NC(CO)c4ccccc4)ccc3Cl)c(=O)[nH]c2n1 (stereo not drawn) [Example 140]
-1.14

Next: CSc1ncc2cc(C(=O)Nc3cc(C(=O)NCc4cccc(Cl)c4)ccc3Cl)c(=O)[nH]c2n1 [Example 74]
-1.59

Next: C[C@@H](NC(=O)c1ccc(Cl)c(NC(=O)c2cc3cnc(N4CCN(C)CC4)nc3[nH]c2=O)c1)c1ccccc1 [Example 174]
-1.06

Next: CN1CCN(c2ncc3cc(C(=O)Nc4cc(C(=O)NCc5cc(F)ccc5F)ccc4Cl)c(=O)[nH]c3n2)CC1 [Example 178]
-1.13
